tested on: S. aureus RN4220; assay: growth inhibition call (relative growth <= 0.2); conditions: 50 µM
Among all 39,000 compounds or so, about 500 (1.3%) were called active. Shown is part of a subset that was picked to be rich in actives.
Choose one outcome from this list and give only that: yes (1) for active, no (0) for inactive

Record request — test call for C[C@@H]1CCCCO[C@H](CN(C)C(=O)CCCN(C)C)[C@@H](C)CN([C@H](C)CO)C(=O)c2cc(N(C)C)ccc2O1
no (0)

Record request — test call for Cc1noc(C)c1S(=O)(=O)Nc1ccc2c(c1)CC(=O)N([C@@H](C)CO)C[C@H](C)[C@@H](CN(C)Cc1ccncc1)O2
no (0)

Record request — test call for O=C1O[C@H](c2ccccc2)[C@H](c2ccccc2)N2[C@H]1[C@@H](C(=O)O)[C@]1(C(=O)Nc3ccc(C#CC4=CCCCC4)cc31)[C@H]2c1ccccc1OCCO
yes (1)

Record request — test call for O=C1O[C@H](c2ccccc2)[C@H](c2ccccc2)N2[C@H]1[C@@H](C(=O)O)[C@]1(C(=O)Nc3ccc(C#CC4=CCCCC4)cc31)[C@H]2c1ccc(O)cc1
yes (1)

Record request — test call for CC(=O)N(C)C[C@@H]1Oc2ncc(C#CC(C)(C)O)cc2C(=O)N([C@@H](C)CO)C[C@@H]1C
no (0)

Record request — test call for O=C1O[C@@H](c2ccccc2)[C@@H](c2ccccc2)N2[C@@H](c3ccc(O)cc3)[C@]3(C(=O)Nc4ccc(C#CC5=CCCCC5)cc43)[C@@H](C(=O)N3CCCCCCC3)[C@H]12
no (0)

Record request — test call for CON=C(C(=O)NC1C(=O)N2C(C(=O)[O-])=C(COC(C)=O)CSC12)c1csc(N)n1.[Na+] (centres undefined)
yes (1)

Record request — test call for C=CCNC(=O)[C@H]1[C@@H]2C(=O)O[C@@H](c3ccccc3)[C@@H](c3ccccc3)N2[C@@H](c2ccc(O)cc2)[C@]12C(=O)Nc1ccc(C#CC3=CCCCC3)cc12
no (0)

Record request — test call for Cn1cnc(S(=O)(=O)N2C[C@@H](O)COC[C@H]3O[C@@H](CC(=O)NCc4ccc(F)cc4)CC[C@@H]32)c1
no (0)

Record request — test call for C[C@H]1CN([C@@H](C)CO)C(=O)c2cccc(NS(=O)(=O)c3cn(C)cn3)c2O[C@@H]1CN(C)Cc1ccc(C(=O)Nc2ccccc2N)cc1
no (0)

Record request — test call for NNC(=O)c1cc(=S)nc[nH]1
no (0)

Record request — test call for C=CCNC(=O)[C@@H]1[C@H]2C(=O)O[C@H](c3ccccc3)[C@H](c3ccccc3)N2[C@H](c2ccc(O)cc2)[C@@]12C(=O)Nc1ccc(C#CC3=CCCCC3)cc12
no (0)

Record request — test call for CN(C)C(=O)C[C@H]1C=C[C@@H](NC(=O)C2CC2)[C@H](CO)O1
no (0)

Record request — test call for O=S(=O)(Cc1ccccc1)Nn1cnnc1
no (0)

Record request — test call for C[C@H](CO)N1C[C@H](C)[C@H](CN(C)C(=O)Nc2ccc(C(F)(F)F)cc2)Oc2ccc(NC(=O)Cn3cnnn3)cc2CC1=O
no (0)

Record request — test call for CC(=CC(=O)OCCCCCCCCC(=O)O)CC1OCC(CC2OC2C(C)C(C)O)C(O)C1O (centres undefined)
yes (1)

Record request — test call for Cc1ccc(S(=O)(=O)Nc2cccc3c2O[C@H](CN(C)S(=O)(=O)c2cn(C)cn2)[C@@H](C)CN([C@H](C)CO)C3=O)cc1
no (0)

Record request — test call for COCC1=C(C(=O)OC(C)OC(=O)OC(C)C)N2C(=O)C(NC(=O)C(=NOC)c3csc(N)n3)C2SC1 (centres undefined)
no (0)

Record request — test call for COc1cccc(S(=O)(=O)N(C)C[C@H]2OCc3cnnn3CCCC(=O)N([C@@H](C)CO)C[C@@H]2C)c1
no (0)

Record request — test call for C[C@@H](O)[C@@H](O)[C@@H](O)C/C=N/NC(=O)CCCCCCC(=O)NO
no (0)

Record request — test call for COc1ccc(S(=O)(=O)N(C)C[C@H]2OCCCC[C@H](C)Oc3ccc(NC(=O)CCC(F)(F)F)cc3C(=O)N([C@H](C)CO)C[C@H]2C)cc1
no (0)

Record request — test call for C/C(=C\C(=O)OCCCCCCCCC(=O)O)C[C@@H]1OC[C@H](C[C@@H]2O[C@H]2[C@@H](C)[C@H](C)O)[C@@H](O)[C@H]1O
no (0)

Record request — test call for C[C@@H]1CCCCO[C@@H](CN(C)Cc2ccc(C(=O)Nc3ccccc3N)cc2)[C@@H](C)CN([C@H](C)CO)C(=O)c2cc(NS(=O)(=O)c3ccc(F)cc3)ccc2O1
no (0)

Record request — test call for C[C@H]1CCCC[C@]12NC(=O)NC2=O
no (0)
